Tested on: MS2 coat protein
Assay: apparent KD of MS2 coat protein; designed switch direction (-1 OFF switch, 1 ON switch): -1; higher = weaker reporter binding
Conditions: input ligand: FMN 200 uM
Would you mind telling me the reported apparent KD of MS2 coat protein of each entry?
One number for each entry, in µM.

CCGAGGUGGCGGUCCUAUGACAUGAGGAUCACCCAUGUACCUCGCCACAAGCUCUUUGCUCAUCUUAUAGUUCUCGG [Onlaor] (Eterna round: R96, puzzle: Sensor v3, turn-off variant 1) | 0.0199

Give measured apparent KD of MS2 coat protein for every item shown.
1. GUUCAACAUGAGGAUCACCCAUGUCAGGAUAUGCGAAUUUCAUCAAAAGAUGAAAUUUGCAGAAGGGACUGAAC [Omei Ex1 A30] (Eterna round: R97, puzzle: Exclusion 1)
2. AACUCCUCAGGAUAUCUGAAAAUGGACAUGAGGAUCACCCAUGUGAAAGUCACAUCCGGAGGAGAAGGGAGGAGAA [Diororlera] (Eterna round: R97, puzzle: Exclusion 5)
3. ACAUGAGGAUCACCCAUGUUUGUUGGGUACUCUUUUUACAGCAAGGAUAUGCAUGUUUUUUUUACGCAGAAGGUGCUGGACGUC [JR_ExcNG3_Sub068] (Eterna round: R96, puzzle: Exclusion NG 3)
4. CGGUGCUUCUGGAAACAUGAGGAUCACCCAUGUUGAGUUAGCGAGGAUAUCGGUAACACAUGUCACGAGAAGGCGCGAACCAGA [Ex NG3 #34] (Eterna round: R96, puzzle: Exclusion NG 3)

0.0305
0.0446
0.381
0.0104

Give measured apparent KD of MS2 coat protein for every item shown.
1. GUGUGCACGCUGCGAUCCUACAUGAGGAUCACCCAUGUGGUCUGGUGGCGUGGGUCACCGGACUUGGCUCGUCUUGC [salish99_S_TOV1_R5_072] (Eterna round: R97, puzzle: Sensor, turn-off variant 1)
2. CAAAAUGUAUAAGGAUAUCUCGCCAAUAAAGGCAGAGAAGGUAUACCCACUUGAGGAUCACCCAAGUCAGGUGUGCCUGGUGGA [Mutated MS2 EX1.24] (Eterna round: R96, puzzle: Exclusion NG 1)
3. UGAGUGCUGCGAGGAUAUACAUGAGGAUCACCCAUGUAAUCGUGUGAGCCAAAGGCUCACACGAAGUAGAAGGCGCAGUACUCU [Mat - Exclusion NG 2 - Mod of JL - D25] (Eterna round: R96, puzzle: Exclusion NG 2)
4. GGUCGUAGACAGGAUAUGCGGCAAAGAAACAAAGCAGAAGGGUCUACUUGAGGAUCACCCAAGUGGGCGGUUAA [Atrele] (Eterna round: R97, puzzle: Exclusion 6)

[0.0356, 0.00787, 0.0125, 0.153]

* * *

Tested on: MS2 coat protein
Assay: apparent KD of MS2 coat protein; designed switch direction (-1 OFF switch, 1 ON switch): -1; higher = weaker reporter binding
Settings: input ligand: microRNA oligo, concentration not stated
measured_metric: apparent KD of MS2 coat protein (nM)
Give bare numbers, in nM.

AAGGGUGCUUUCAGAACGACAUGAGGAUCACCCAUGUAGACUGAGGAUAUCUACUCCUAAGGACGGGAGAAGGUAGUGUAAUGC [Ex NG3 #66] (Eterna round: R96, puzzle: Exclusion NG 3) | 17.7

Enter measured apparent KD of MS2 coat protein, system MS2 coat protein, for the sequence shown: UUCGUACAGCUUUGCUGUACGCGUACAUGAGGAUCACCCAUGUAGGAUAUGGUAGGCAAAGCUUACUAGAAGGAUAGAGUGAUC [Mat - Exclusion NG 3 - Mod of JL - D75] (Eterna round: R96, puzzle: Exclusion NG 3)
96.2
